# Tested on: Plasmodium berghei
# test.protocol: Luciferase/luciferin-expressing antifolate-resistant parasites were used to infect a culture of HepG2 cells that were pre-incubated with compounds. Infected hepatocytes emit light due to the luciferase reaction. Assay results are presented as the percent inhibition of light emission compared to control. […]
# Assay type: functional
# setup.conditions: sporozoite, FFLUC_HILL_SLOPE 10.4, FFLUC_R_SQUARED 0.141, HEPG2TOX_HILL_SLOPE 0.681, HEPG2TOX_R_SQUARED 0.905, PBLUC_HILL_SLOPE 1.27, PBLUC_R_SQUARED 0.687, read-out: LUCIFERASE INFECTION ASSAY - IC50
metric: IC50

Lookup: Tell me the measured IC50 of CCN(CCO)c1ccc(NC2=C(NC(C)=O)C(=O)c3ccccc3C2=O)cc1 , please.
Found: 2160 nM

* * *

# System: Plasmodium berghei
# test.protocol: Luciferase/luciferin-expressing antifolate-resistant parasites were used to infect a culture of HepG2 cells that were pre-incubated with compounds. Infected hepatocytes emit light due to the luciferase reaction. Assay results are presented as the percent inhibition of light emission compared to control. […]
# Type: functional
# setup.conditions: sporozoite, PBLUC_HILL_SLOPE 1.51, PBLUC_R_SQUARED 0.601, read-out: LUCIFERASE INFECTION ASSAY - IC50
metric: pIC50
The value called pIC50 is obtained by taking minus log10 of the concentration in mol/L.

Lookup: Any idea what its pIC50 is? The compound is Cc1ccc(NC(=O)COc2ccc3c(c2C)OC(C)(C)CC3)cc1
Found: 5.42

* * *

# Test system: Plasmodium berghei
# test.protocol: Luciferase/luciferin-expressing antifolate-resistant parasites were used to infect a culture of HepG2 cells that were pre-incubated with compounds. Infected hepatocytes emit light due to the luciferase reaction. Assay results are presented as the percent inhibition of light emission compared to control. […]
# Format: functional
# setup.conditions: sporozoite, PBLUC_HILL_SLOPE 0.525, PBLUC_R_SQUARED 0.706, read-out: LUCIFERASE INFECTION ASSAY - IC50
metric: IC50 (nM)
Write it as a number; the unit nM goes unstated.

Lookup: I have this molecule here, O=C(O)c1c2c(nc3ccccc13)/C(=C/c1ccccc1Cl)CC2 , and I need its recorded IC50.
Found: 569

* * *

# Test system: Plasmodium berghei
# test.protocol: Luciferase/luciferin-expressing antifolate-resistant parasites were used to infect a culture of HepG2 cells that were pre-incubated with compounds. Infected hepatocytes emit light due to the luciferase reaction. Assay results are presented as the percent inhibition of light emission compared to control. […]
# Type: functional
# setup.conditions: sporozoite, HEPG2TOX_HILL_SLOPE 2.54, HEPG2TOX_R_SQUARED 0.824, PBLUC_HILL_SLOPE 3.93, PBLUC_R_SQUARED 0.329, read-out: LUCIFERASE INFECTION ASSAY - IC50
metric: IC50 (µM)
Write it as a number; the unit µM goes unstated.

Lookup: Given O=C(Nc1nc2ccc(Oc3ccccc3)cc2s1)c1ccoc1 , state its recorded IC50.
Found: 7.66

* * *

# Tested on: Plasmodium berghei
# test.protocol: Luciferase/luciferin-expressing antifolate-resistant parasites were used to infect a culture of HepG2 cells that were pre-incubated with compounds. Infected hepatocytes emit light due to the luciferase reaction. Assay results are presented as the percent inhibition of light emission compared to control. […]
# Assay type: functional
# setup.conditions: sporozoite, PBLUC_HILL_SLOPE 11.8, PBLUC_R_SQUARED 0.519, read-out: LUCIFERASE INFECTION ASSAY - IC50
metric: IC50

Lookup: So what does the record say about IC50 for Cc1c(Cl)cc(NC(=O)Nc2ccccc2)c(O)c1Cl ?
Found: 9.83 µM
